Test system: NCI/ADR-RES ovarian
Test: NCI-60 one-dose screen, 48 h
Conditions: 10 µM unless noted
This is part of a sample that, as a whole, favours compounds with a hit. Of some 83,000 tested, about 20% had one in any assay. Active and inactive are the calls of the source. The calls were made as follows: active = growth percent below 10; inactive = the rest.
Choose one outcome from this list and give only that: yes = active, no = inactive

Check out these entries, answers already filled in.
{"columns": ["MOLECULE", "QUALITATIVE_LABEL"],
 "data": [
  ["O=C(O)/C(=C\\c1ccc(Cl)cc1)c1ccc(Cl)cc1", "no"],
  ["O=C(O)CCCN1C(=O)/C(=C/C(Cl)=C/c2ccccc2)SC1=S", "yes"],
  ["C=CC(=O)NCc1ccc(Nc2nccc(-c3ccc(N4CCCC4)c(C#N)c3)n2)cc1", "no"],
  ["COc1ccc(-c2nnc(-c3ccc4c(c3)nc(-c3ccncc3)n4C3CCCCC3)o2)cc1", "no"],
  ["CCOC(=O)C(=Cc1cccc(Br)c1)C(=O)OCC", "no"]
]}

Input: Would you mind telling me which call this test gave OCCCC1CCN(C(Cc2ccccc2)c2ccccc2)CC1 (stereo not given) ?
Output: no

###

System: U251 CNS
Assay: NCI-60 one-dose screen, 48 h
Settings: 10 µM unless noted
This is part of a sample that, as a whole, favours compounds with a hit. Of some 83,000 tested, about 20% had one in any assay. The source made the active and inactive calls. The calls were made as follows: active = growth percent below 10; inactive = the rest.
Choose one outcome from this list and give only that: active, inactive

Check out these entries, answers already filled in.
{"columns": ["MOLECULE", "QUALITATIVE_LABEL"],
 "data": [
  ["COC(=O)c1c2c(c(C)[n+]([O-])c1C)C(=O)C(NCc1ccc(Cl)cc1)=CC2=O", "inactive"],
  ["N#Cc1cnc(NCCc2ccncc2)nc1-n1cnc2ccccc21", "inactive"],
  ["c1ccc(C2=NN[C@H](c3cn(-c4ccccc4)nc3-c3ccccc3)C2)cc1", "active"],
  ["O=C(Cn1c2c(c3ccccc31)CCCC2)Nc1ccc(-c2nc3ccccc3s2)cc1", "inactive"],
  ["COc1ccc2cc(-c3ccc(NC(C)=O)c(=O)o3)ccc2c1", "inactive"],
  ["O=C1CNC(c2ccccc2)C(c2ccccc2)N1 (stereo unspecified)", "inactive"],
  ["COC(=O)c1ccc2c(c1)C(=O)c1c-2n(CCCN)c(=O)c2cc([N+](=O)[O-])ccc12", "active"],
  ["CN1CCN(Cc2ccc3c(NNC(=O)c4ccccc4)nc4cc(F)ccc4n23)CC1", "inactive"]
]}

Input: Would you mind telling me which call this test gave Cc1ccc(-c2nc(N3CCNCC3)c3oc(-c4ccccc4)nc3n2)cc1 ?
Output: active

Input: Would you mind telling me which call this test gave CCOC(=O)C(=Cc1cccc(Cl)c1)C(=O)OCC ?
Output: inactive

###

Test system: OVCAR-4 ovarian
Assay: NCI-60 one-dose screen, 48 h
Details: 10 µM unless noted
The panel holds about 83,000 compounds, 20% with a hit somewhere; the sample as a whole holds those more often. The source made the active and inactive calls. Rule for the calls: active = growth percent below 10; inactive = the rest.
Choose one outcome from this list and give only that: yes = active, no = inactive

Input: Would you mind telling me which call this test gave c1cnc2[nH]cc(-c3csc(-c4cn(CCCN5CCOCC5)c5ccccc45)n3)c2c1 ?
Output: no

Input: Would you mind telling me which call this test gave COc1ccc(C(=O)C2C(c3ccc(OC)cc3)CN(C)C23C(=O)Nc2ccccc23)cc1 (stereo not given) ?
Output: no

###

System: HT29 colon
Test: NCI-60 one-dose screen, 48 h (100 = growth as untreated, 0 = no growth, -100 = all killed)
Conditions: 10 µM unless noted
Compounds without any hit were thinned out: in the full panel of roughly 83,000, 20% have a hit.
PROPERTY_LABEL: growth (%)
// return numeric value only (unit: %, not printed)

{"columns": ["COMPOUND", "ASSAYED_SYSTEM", "growth / %"],
 "data": [
  ["CCOC(=O)Cn1c(O)c(N=Nc2ccc(S(N)(=O)=O)cc2)c2cc(Br)ccc21", "HT29 colon", 63.7],
  ["O=C1/C(=C\\c2cn(-c3ccccc3)nc2-c2ccc(-c3cccs3)cc2)CCc2ccccc21", "HT29 colon", 29.5],
  ["Cn1c(-c2ccc(Br)cc2)c(O)c(=O)c2c(F)cccc21", "HT29 colon", 36.6],
  ["N#CC1C=CN(CC(N)=O)c2ccc3cccnc3c21 (stereo unspecified)", "HT29 colon", 88.3]
]}

Input: Form field: reported growth of CC(C)CCC[C@@H](C)[C@H]1CC[C@H]2[C@@H]3CC=C4C[C@@H](C(C(=O)O)C(=O)O)CC[C@]4(C)[C@H]3CC[C@]12C
Output: -35.1

Input: Form field: reported growth of CNc1nc(S(=O)c2ccc(C#N)cc2)nc2ccccc12 (stereo unspecified)
Output: 81.8

Input: Form field: reported growth of C=CCn1c(SCC(=O)Nc2ccc(C(=O)/C=C/c3cc4cc(OC)ccc4nc3Cl)cc2)nnc1-c1ccc(Br)cc1
Output: 73.8

Input: Form field: reported growth of Cc1ccc(S(=O)(=O)N2CCCC2CO)cc1 (stereo unspecified)
Output: 88.5

Input: Form field: reported growth of Cc1cccc(N2CCN(CC(O)COc3ccc(Cl)cc3)CC2)c1 (stereo unspecified)
Output: 114

Input: Form field: reported growth of CC(C)=NNc1ccccn1
Output: 27.4

Input: Form field: reported growth of COc1ccc2cc(-c3ccc(NC(C)=O)c(=O)o3)ccc2c1
Output: 87.9

###

System: HCT-15 colon
Test: NCI-60 one-dose screen, 48 h (100 = growth as untreated, 0 = no growth, -100 = all killed)
Details: 10 µM unless noted
This is part of a sample that, as a whole, favours compounds with a hit. Of some 83,000 tested, about 20% had one in any assay.
# growth values compiled below
// return numeric value only (unit: %, not printed)

// worked examples, growth included
{"columns": ["COMPOUND", "PROPERTY_LABEL", "ENDPOINT_VALUE"],
 "data": [
  ["Cc1cc(N)c2cc(NC(=O)/C=C\\c3ccccc3Cl)ccc2n1", "growth", 10.9],
  ["CCN(CC)CCSc1nc(-c2ccccc2)c(C#N)c(=O)[nH]1", "growth", 117],
  ["CN(C)Cc1ccc(NC(=O)c2cncc(C#Cc3cnc(N)c4ncccc34)c2)cc1F", "growth", -55.7],
  ["COc1ccc(-c2nn(-c3ccccc3)cc2/C=C2/SC(=S)N(C)C2=O)cc1", "growth", 74.2],
  ["COC(=O)[C@H]1CCCN1C[C@@H](O)CN1C(=O)/C(=C\\c2cc(OC)c(OC)c(OC)c2)c2ccccc21", "growth", 98]
]}

Input: Form field: reported growth of CCN1CC(=O)N(/N=C2\C(=O)Nc3ccccc32)C1=S
Output: 95.1

Input: Form field: reported growth of N#Cc1nn(-c2cc(=O)[nH]c3ccc(Cl)cc23)c(N)c1C#N
Output: 108

Input: Form field: reported growth of CN(C)CC(=O)Nc1ccc2ncnc(Nc3ccc(Oc4cccc(C(F)(F)F)c4)c(Cl)c3)c2c1
Output: 1.59

Input: Form field: reported growth of CCCCCCCCn1ccc2cc(NC(=O)CN3CCN(c4nc(C)cc(Cl)n4)CC3)ccc21
Output: 77.1

Input: Form field: reported growth of CN(C)c1ccc(Nc2cc(-c3cccc(OC(F)(F)F)c3)nc3ccc(N4CCCC4)cc23)cc1
Output: -45.5

Input: Form field: reported growth of CN1CCN(C(=O)c2ccc(NC(=O)Nc3ccc(-c4nc(N5CCOCC5)c5cccn5n4)cc3)cc2)CC1
Output: 13.2

Input: Form field: reported growth of Nc1c(C(=O)Nc2ccncc2)sc2nc3c(cc12)CCCCCC3
Output: 63.5

Input: Form field: reported growth of COc1cc2c(c(OC)c1OC)-c1ccc(OC)c(=O)cc1[C@@H](NC(=O)CCl)CC2
Output: 7.81

Input: Form field: reported growth of CCc1ccc(C(=O)/C=C/C23c4ccccc4C(c4ccccc42)C2C(=O)NC(=O)C23)cc1 (stereo not drawn)
Output: -10.3

Input: Form field: reported growth of COc1ccc2c(O)c(/C=C3\N=Nc4ncccc43)oc2c1C[C@H]1CCNC[C@H]1F
Output: 7.66

Input: Form field: reported growth of COc1ccc(Cc2cc(-c3ccccc3)nn(Cc3ccccc3)c2=O)cc1OC
Output: 28.7

###

Tested on: MOLT-4 leukemia
Assay: NCI-60 one-dose screen, 48 h (100 = growth as untreated, 0 = no growth, -100 = all killed)
Settings: 10 µM unless noted
The panel holds about 83,000 compounds, 20% with a hit somewhere; the sample as a whole holds those more often.
PROPERTY_LABEL: growth (%)
// return numeric value only (unit: %, not printed)

// worked examples, growth included
{"columns": ["MOLECULE", "growth (%)"],
 "data": [
  ["Nc1c(C(=O)Nc2ccccc2Cl)sc2nc3c(cc12)C(O)CCC3 (stereo not given)", 38.9],
  ["COC(=O)c1ccc2c(c1)C(=O)c1c-2n(CCCN)c(=O)c2cc([N+](=O)[O-])ccc12", -58.6],
  ["CCCC(O)Cn1ncc(C(=O)OCC)c1NC(=O)NCc1ccccc1F (stereo not given)", 71],
  ["COc1cc(N2C(=O)[C@H](O)C2c2ccc(SC)cc2)cc(OC)c1OC (stereo not given in full)", 4.67],
  ["CS(=O)(=O)c1cccc(-c2c(-c3cccc(OS(N)(=O)=O)c3)nc3sccn23)c1", 105]
]}

Input: Form field: reported growth of Cc1ccc(Cc2cnc(NC(=O)c3cc(Br)cs3)s2)cc1
Output: 36.1

Input: Form field: reported growth of COc1cccc(CNc2ncnc3c2ncn3C2OC(CO)C(O)C2O)c1O (stereo not given)
Output: 0.14

Input: Form field: reported growth of CC1=Nc2cnc(Nc3ccc(OCCN4CCCCC4)cc3)nc2Nc2ccccc21
Output: 25.4

Input: Form field: reported growth of O=C(CI)NC1Oc2ccccc2-c2oc(=O)c(-c3ccccc3)cc21 (stereo not given)
Output: -25.8

Input: Form field: reported growth of Cc1ccc(/C=C2\CN(C(=O)OC(C)(C)C)C/C(=C\c3ccc(C)cc3)C2=O)cc1
Output: 34.7
